system under test: ABHD6 (Mus musculus)
Construct: Proteomes (mouse brain membrane fraction or cell lysates); from tissue; host or cells: mouse brain membrane fraction (or cell lysates, not specified)
Sequence (Q8R2Y0 1-336): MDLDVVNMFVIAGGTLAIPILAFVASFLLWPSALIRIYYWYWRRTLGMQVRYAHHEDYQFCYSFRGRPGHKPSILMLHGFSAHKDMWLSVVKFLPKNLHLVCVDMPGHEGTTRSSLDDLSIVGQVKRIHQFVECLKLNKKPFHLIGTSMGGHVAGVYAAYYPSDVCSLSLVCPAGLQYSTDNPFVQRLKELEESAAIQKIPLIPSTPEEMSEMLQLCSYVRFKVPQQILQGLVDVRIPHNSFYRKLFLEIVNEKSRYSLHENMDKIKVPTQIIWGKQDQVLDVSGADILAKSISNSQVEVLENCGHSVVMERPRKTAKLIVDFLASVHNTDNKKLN
assay details: In vitro competitive activity-based protein profiling (gel-based, FP-Rh or HT-01 probe)
Assay type: biochemical
condition details: 1 μM inhibitor; gel-based competitive ABPP; read-out: % Inhibition at 1 μM, C = ABHD6
quantity measured: inhibition at 1 µM

{"chemical structure": "O=C(c1cnn(C(=O)N2CCN(Cc3ccc(-c4ccccc4)cc3Cl)CC2)c1)N1CCCC1", "measured": "> 75%"}
{"chemical structure": "CCN(Cc1ccc(Cl)cc1)C(=O)n1cc(C#N)cn1", "measured": "< 25%"}
{"chemical structure": "CCN(Cc1ccc(C)cc1)C(=O)n1cc(C#N)cn1", "measured": "< 25%"}
{"chemical structure": "O=C(N1CCN(Cc2cccc(OCc3ccccc3)c2)CC1)n1cccn1", "measured": "> 75%"}
{"chemical structure": "O=C(N1CCN(Cc2cccc(N3CCOCC3)c2)CC1)n1cc(C(F)(F)F)cn1", "measured": "> 75%"}

Inquiry: Name the recorded inhibition at 1 µM of the compound listed here: "CCN(Cc1ccc(OC)cc1)C(=O)n1cc(C)cn1"
Reply text: < 25%

Inquiry: Recall and state the measured inhibition at 1 µM for "CCN(Cc1cccc(OC)c1)C(=O)n1cc(C(F)(F)F)cn1" .
Reply text: 25 to 75%

Inquiry: State, in one line, measured inhibition at 1 µM of "N#Cc1cnn(C(=O)N2CCN(Cc3ccc(C(=O)N4CCC4)cc3F)CC2)c1"
Reply text: > 75%

Inquiry: Report inhibition at 1 µM, nothing else, for this compound: "CCN(Cc1cccc(C)c1)C(=O)n1cc(C(F)(F)F)cn1"
Reply text: 25 to 75%

Inquiry: State its inhibition at 1 µM for this compound: "O=C(N1CCN(Cc2ccccc2F)CC1)n1cc(C(F)(F)F)cn1"
Reply text: > 75%

====

system under test: MAGL (Mus musculus, UniProt O35678)
Construct: Proteomes (mouse brain membrane fraction or cell lysates); from tissue; host or cells: mouse brain membrane fraction (or cell lysates, not specified)
Sequence (O35678 whole entry): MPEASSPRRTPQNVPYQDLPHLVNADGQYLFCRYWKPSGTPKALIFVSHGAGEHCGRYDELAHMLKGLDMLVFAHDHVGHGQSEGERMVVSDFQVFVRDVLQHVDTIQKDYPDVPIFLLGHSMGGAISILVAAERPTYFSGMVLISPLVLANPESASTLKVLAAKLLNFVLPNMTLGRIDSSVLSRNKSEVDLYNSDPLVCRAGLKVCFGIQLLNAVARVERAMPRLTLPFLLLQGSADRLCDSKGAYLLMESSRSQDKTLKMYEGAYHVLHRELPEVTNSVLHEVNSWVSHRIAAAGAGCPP
assay details: In vitro competitive activity-based protein profiling (gel-based, FP-Rh or HT-01 probe)
Assay type: biochemical
condition details: 10 μM inhibitor
// reported inhibition at 10 µM per item

Some compounds with known inhibition at 10 µM results, for comparison:
{"chemical structure": "N#Cc1cnn(C(=O)NCCCCCc2ccccc2)c1", "inhibition at 10 µM": "25 to 75%"}
{"chemical structure": "Cc1cccc(N2CCN(C(=O)n3cc(C(F)(F)F)cn3)CC2)c1", "inhibition at 10 µM": "> 75%"}
{"chemical structure": "Cc1cnn(C(=O)N2CCN(C(c3ccc(Cl)cc3)c3ccc(Cl)cc3)CC2)c1", "inhibition at 10 µM": "> 75%"}
{"chemical structure": "O=C(N1CCN(Cc2ccc3ccccc3c2)CC1)n1cc(I)cn1", "inhibition at 10 µM": "> 75%"}

Inquiry: Identify measured inhibition at 10 µM associated with "Cc1cc(N2CCN(C(=O)n3cc(C(F)(F)F)cn3)CC2)c2ccccc2n1"
Reply text: > 75%
